Target: recombinant human PD-1 protein (Homo sapiens, UniProt Q15116)
Construct: amino acids 34-150 of human PD-1
Sequence (Q15116 34-150): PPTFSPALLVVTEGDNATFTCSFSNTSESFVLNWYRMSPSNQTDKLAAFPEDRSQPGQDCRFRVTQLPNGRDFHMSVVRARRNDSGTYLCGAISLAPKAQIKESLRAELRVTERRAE
Test: SPR determination of binding constants between saponin natural products and PD-1 protein
Conditions: PD-1 coupled to CM7 chip, steady-state fitting, read-out: Binding affinity KD
What Kd was measured for each of the following?
Write the number in nM without appending the unit.

(Q) Answer with the recorded Kd for the compound listed here: C[C@@H]1CC[C@]2(C(=O)O)CC[C@]3(C)C(=CC[C@@H]4[C@@]5(C)CC[C@H](O[C@@H]6OC[C@H](O)[C@H](O)[C@H]6O)C(C)(C)[C@@H]5CC[C@]43C)[C@@H]2[C@]1(C)O
(A) 440

(Q) Answer with the recorded Kd for the compound listed here: C[C@H]1[C@H](C)CC[C@]2(C(=O)O)CC[C@]3(C)C(=CC[C@@H]4[C@@]5(C)C[C@@H](O)[C@@H](O)C(C)(C)[C@@H]5CC[C@]43C)[C@H]12
(A) 1770

(Q) Answer with the recorded Kd for the compound listed here: CC1(C)CC[C@]2(C(=O)O[C@@H]3O[C@H](CO)[C@@H](O)[C@H](O)[C@H]3O)CC[C@]3(C)C(=CC[C@@H]4[C@@]5(C)CC[C@H](OC6O[C@H](C(=O)O)[C@@H](O)[C@H](O)[C@H]6OC6O[C@H](CO)[C@@H](O)[C@H](O)[C@H]6O)C(C)(C)[C@@H]5CC[C@]43C)[C@@H]2C1 (stereo partly drawn)
(A) 2230
